Source of measurements: ChEMBL document CHEMBL1240483

assay: Toxicity in intragastrically administered Kunming mouse after 14 days; assay type: organism-based; conditions: in vivo, po
recorded-endpoint: LD50 at 336 h (mg/kg)
Supply the numeric figure in mg/kg, leaving out any unit text.

O=C(Nc1cccc(I)c1)C(Cl)Cl ... 1120

Would you kindly share the measured LD50 at 336 h for O=C(Nc1cccc(Cl)c1)C(Cl)Cl ? 4550
